Every entry's value here was drawn from patent US20070128217A1.

Assign Binding of serum 2 to looped/cyclic peptide (PEPSCAN-ELISA) to each entry below.
system: antibodies in sera from SARS patients (sera 1a, 1b, 2, 6, 37, 62, London, SARS-yellow, SARS-green); type: binding, human
Number, no unit, nothing else.

QUERY: For the sequence "GMEAQFLYLYALIYF" , what Binding of serum 2 to looped/cyclic peptide (PEPSCAN-ELISA) is on record?
RESULT: 0.5

QUERY: Report Binding of serum 2 to looped/cyclic peptide (PEPSCAN-ELISA) for "TIPLQASLPFGWLVI" please.
RESULT: 0.5

QUERY: Which value of Binding of serum 2 to looped/cyclic peptide (PEPSCAN-ELISA) has been reported for "LVAAGMEAQFLYLYA" in the records?
RESULT: 0.5

QUERY: # lookup: Binding of serum 2 to looped/cyclic peptide (PEPSCAN-ELISA) of "VAFLAVFQSATKIIA"
RESULT: 0.6

QUERY: Any idea what Binding of serum 2 to looped/cyclic peptide (PEPSCAN-ELISA) was measured for "NLLLLFVTIYSHLLL" ?
RESULT: 0.4

###

tested on: antibodies in sera from SARS patients (sera 1a, 1b, 2, 6, 37, 62, London, SARS-yellow, SARS-green); format: binding, human
MEASUREMENT_NAME: Binding of serum 2 to looped/cyclic peptides of protein X3 of SARS-CoV Urbani
Just the number, please, no unit after it.

QUERY: Name the reported Binding of serum 2 to looped/cyclic peptides of protein X3 of SARS-CoV Urbani value associated with the sequence "HLVDFQVTIAEILII"
RESULT: 0.6

QUERY: So what's the measured Binding of serum 2 to looped/cyclic peptides of protein X3 of SARS-CoV Urbani for this one? "TIAEILIIIMRTFRI"
RESULT: 0.6

QUERY: Reported Binding of serum 2 to looped/cyclic peptides of protein X3 of SARS-CoV Urbani for "FHLVDFQVTIAEILI" : what is it?
RESULT: 0.8

QUERY: Using the record for "IWNLDVIISSIVRQL" , report its Binding of serum 2 to looped/cyclic peptides of protein X3 of SARS-CoV Urbani.
RESULT: 0.5

###

system: antibodies in sera from SARS patients (sera 1a, 1b, 2, 6, 37, 62, London, SARS-yellow, SARS-green); format: binding, human
Assign Binding of serum 1a to linear peptides of protein N of SARS-CoV Urbani to each entry below.

QUERY: I have this sequence here, "TDEAQPLPQRQKKQP" , and I need its recorded Binding of serum 1a to linear peptides of protein N of SARS-CoV Urbani.
RESULT: 0.2

QUERY: I am curious: what Binding of serum 1a to linear peptides of protein N of SARS-CoV Urbani value has been reported for "YYRRATRRVRGGDGK" ?
RESULT: 0.3

QUERY: Need Binding of serum 1a to linear peptides of protein N of SARS-CoV Urbani, item "SASAFFGMSRIGMEV"
RESULT: 0.3

QUERY: For "PTEPKKDKKKKTDEA" , what is its reported Binding of serum 1a to linear peptides of protein N of SARS-CoV Urbani?
RESULT: 0.2

QUERY: What does the data say about its Binding of serum 1a to linear peptides of protein N of SARS-CoV Urbani? Entry: "PLPQRQKKQPTVTLL"
RESULT: 0.2

QUERY: Requested field: Binding of serum 1a to linear peptides of protein N of SARS-CoV Urbani. Item: "DKKKKTDEAQPLPQR"
RESULT: 0.2

QUERY: Quick one: Binding of serum 1a to linear peptides of protein N of SARS-CoV Urbani of "TGPEASLPYGANKEG" ?
RESULT: 0.3

QUERY: Suppose we examine the sequence "PTVTLLPAADMDDFS" ; what Binding of serum 1a to linear peptides of protein N of SARS-CoV Urbani value has been reported?
RESULT: 0.3

QUERY: Which Binding of serum 1a to linear peptides of protein N of SARS-CoV Urbani value belongs to "YLGTGPEASLPYGAN" ?
RESULT: 0.2

QUERY: For the sequence shown here, "EPKKDKKKKTDEAQP" , give the reported Binding of serum 1a to linear peptides of protein N of SARS-CoV Urbani.
RESULT: 0.2

QUERY: For the sequence shown here, "LPNNTASWFTALTQH" , give the reported Binding of serum 1a to linear peptides of protein N of SARS-CoV Urbani.
RESULT: 0.2

QUERY: # input sequence: "SAPRITFGGPTDSTD" ; wanted: its Binding of serum 1a to linear peptides of protein N of SARS-CoV Urbani
RESULT: 0.2

QUERY: Fill blank: measured Binding of serum 1a to linear peptides of protein N of SARS-CoV Urbani of the sequence "GQGVPINTNSGPDDQ" is ____.
RESULT: 0.3

QUERY: Quick check: Binding of serum 1a to linear peptides of protein N of SARS-CoV Urbani of "NQNGGRNGARPKQRR" ?
RESULT: 0.2

QUERY: Bench note: what Binding of serum 1a to linear peptides of protein N of SARS-CoV Urbani did "SAFFGMSRIGMEVTP" show?
RESULT: 0.3

QUERY: Consider the sequence "DGKMKELSPRWYFYY" and give its measured Binding of serum 1a to linear peptides of protein N of SARS-CoV Urbani.
RESULT: 0.2

QUERY: Look at this sequence and give its reported Binding of serum 1a to linear peptides of protein N of SARS-CoV Urbani. "ELRFPRGQGVPINTN"
RESULT: 0.2

QUERY: Requested read-out: Binding of serum 1a to linear peptides of protein N of SARS-CoV Urbani. Entry: "FGGPTDSTDNNQNGG"
RESULT: 0.3

QUERY: So what does the record say about Binding of serum 1a to linear peptides of protein N of SARS-CoV Urbani for "TQHGKEELRFPRGQG" ?
RESULT: 0.3

QUERY: Fill in: Binding of serum 1a to linear peptides of protein N of SARS-CoV Urbani of "SRQLQNSMSGASADS" is ___
RESULT: 0.2

QUERY: Any idea what its Binding of serum 1a to linear peptides of protein N of SARS-CoV Urbani is? The sequence is "GYYRRATRRVRGGDG"
RESULT: 0.3

QUERY: # input sequence: "LLPAADMDDFSRQLQ" ; wanted: its Binding of serum 1a to linear peptides of protein N of SARS-CoV Urbani
RESULT: 0.3

QUERY: Could you tell me which Binding of serum 1a to linear peptides of protein N of SARS-CoV Urbani is on file for "LNTPKDHIGTRNPNN" ?
RESULT: 0.2

QUERY: # Binding of serum 1a to linear peptides of protein N of SARS-CoV Urbani lookup, item "EELRFPRGQGVPINT"
RESULT: 0.2

QUERY: # lookup: Binding of serum 1a to linear peptides of protein N of SARS-CoV Urbani of "RNGARPKQRRPQGLP"
RESULT: 0.2

QUERY: Suppose we examine the sequence "PQSNQRSAPRITFGG" ; what Binding of serum 1a to linear peptides of protein N of SARS-CoV Urbani value has been reported?
RESULT: 0.3

QUERY: Consider the sequence "DSTDNNQNGGRNGAR" and give its measured Binding of serum 1a to linear peptides of protein N of SARS-CoV Urbani.
RESULT: 0.2

QUERY: Entry under review: "YKTFPPTEPKKDKKK" . Reported Binding of serum 1a to linear peptides of protein N of SARS-CoV Urbani?
RESULT: 0.2

QUERY: Param item = "GDGKMKELSPRWYFY" ; retrieve measured Binding of serum 1a to linear peptides of protein N of SARS-CoV Urbani.
RESULT: 0.2

QUERY: Given "KHIDAYKTFPPTEPK" , state its recorded Binding of serum 1a to linear peptides of protein N of SARS-CoV Urbani.
RESULT: 0.3

QUERY: Using the record for "LQNSMSGASADSTQA" , report its Binding of serum 1a to linear peptides of protein N of SARS-CoV Urbani.
RESULT: 0.2

QUERY: Can you look up the measured Binding of serum 1a to linear peptides of protein N of SARS-CoV Urbani of "PINTNSGPDDQIGYY" for me?
RESULT: 0.2

QUERY: # Binding of serum 1a to linear peptides of protein N of SARS-CoV Urbani lookup, item "DAYKTFPPTEPKKDK"
RESULT: 0.3

QUERY: I'd like to know its Binding of serum 1a to linear peptides of protein N of SARS-CoV Urbani. The sequence in question is "KKKTDEAQPLPQRQK"
RESULT: 0.2

QUERY: Fill in the blank: the reported Binding of serum 1a to linear peptides of protein N of SARS-CoV Urbani of "RQLQNSMSGASADST" is ____.
RESULT: 0.2

QUERY: Look up Binding of serum 1a to linear peptides of protein N of SARS-CoV Urbani: "KTFPPTEPKKDKKKK"
RESULT: 0.2

QUERY: Entry under review: "MDDFSRQLQNSMSGA" . Reported Binding of serum 1a to linear peptides of protein N of SARS-CoV Urbani?
RESULT: 0.2

QUERY: Which Binding of serum 1a to linear peptides of protein N of SARS-CoV Urbani value is on record for "AQPLPQRQKKQPTVT" ?
RESULT: 0.3

QUERY: Would you kindly share the measured Binding of serum 1a to linear peptides of protein N of SARS-CoV Urbani for "PNNNAATVLQLPQGT" ?
RESULT: 0.2
